- System: SF-295 CNS
- protocol-description: NCI-60 one-dose screen, 48 h (100 = growth as untreated, 0 = no growth, -100 = all killed)
- particulars: 10 µM
This is part of a sample that, as a whole, favours compounds with a hit. Of some 83,000 tested, about 20% had one in any assay.
Examples of compounds with documented growth follow.

| smiles-representation | growth [%] |
| --- | --- |
| Cc1c(-c2ccccc2)[nH]c2ccccc12 | 106 |
| CCC(=O)Oc1ccc(/C=N/NC(N)=S)nc1 | 97.4 |
| O=S(=O)(c1cc(Cl)ccc1O)c1cc(Cl)ccc1O | 85.2 |
| CCC(C)(c1ccc(O)c(C)c1)c1ccc(O)c(C)c1 | 87.8 |
| O=C1C=CC(=O)N1c1ccc(N2C(=O)C=CC2=O)cc1 | 109 |
| O=C1c2cccc3cc([N+](=O)[O-])cc(c23)C(=O)N1CCN1CCCC1 | 11 |
